Target: bovine serum albumin (Bos taurus, UniProt P02769)
Sequence (P02769 25-607): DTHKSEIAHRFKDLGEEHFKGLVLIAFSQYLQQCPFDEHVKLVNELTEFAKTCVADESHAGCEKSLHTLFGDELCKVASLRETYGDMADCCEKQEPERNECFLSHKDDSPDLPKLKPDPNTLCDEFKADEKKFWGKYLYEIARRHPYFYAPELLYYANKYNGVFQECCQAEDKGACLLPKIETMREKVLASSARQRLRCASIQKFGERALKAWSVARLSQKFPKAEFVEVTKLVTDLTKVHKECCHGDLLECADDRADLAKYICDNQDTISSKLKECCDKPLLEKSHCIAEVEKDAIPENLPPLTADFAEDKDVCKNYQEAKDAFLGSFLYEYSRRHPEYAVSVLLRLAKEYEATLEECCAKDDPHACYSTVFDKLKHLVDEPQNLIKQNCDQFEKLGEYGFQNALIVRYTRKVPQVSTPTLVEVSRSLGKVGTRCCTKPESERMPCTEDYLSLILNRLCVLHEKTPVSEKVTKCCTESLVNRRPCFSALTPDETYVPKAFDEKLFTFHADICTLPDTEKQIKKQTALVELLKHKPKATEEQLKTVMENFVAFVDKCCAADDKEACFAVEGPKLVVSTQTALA
Assay: Albumin binding by equilibrium dialysis
Assay type: in vitro ADME
Settings: 5% bovine serum albumin saline solution, 25° C.
Label TRUE when Albumin binding (%) is at or above 80%; anything below gets FALSE.

C[C@H](CC(=O)O)[C@H]1CC[C@H]2[C@@H]3[C@H](O)C[C@@H]4C[C@H](O)CC[C@]4(C)[C@H]3CC[C@]12C [Nor-CDCA, 24-nor-CDCA, reference compound]; TRUE
CC[C@H]1[C@@H](O)[C@@H]2[C@H](C[C@H](O)[C@]3(C)[C@@H]([C@H](C)C[C@@H](F)C(=O)O)CC[C@@H]23)[C@@]2(C)CC[C@@H](O)C[C@@H]12 [Compound 9]; TRUE
C[C@H](CCC(=O)NCC(=O)O)[C@H]1CC[C@H]2[C@@H]3[C@H](O)C[C@@H]4C[C@H](O)CC[C@]4(C)[C@H]3CC[C@]12C [GCDCA, reference compound]; TRUE
CC[C@H]1[C@@H](O)C2C3CC[C@H]([C@H](C)CC(=O)NCCO)[C@@]3(C)CCC2[C@@]2(C)CC[C@@H](O)C[C@@H]12 (stereo partly shown) [Compound 19]; FALSE
CC[C@H]1[C@@H](O)C2C3CC[C@H]([C@H](C)CCC(=O)O)[C@@]3(C)CCC2[C@@]2(C)CC[C@@H](O)C[C@@H]12 (stereo partly shown) [Ref. Cmpd. B, reference compound]; TRUE
C[C@H](CCC(=O)O)[C@H]1CC[C@H]2[C@@H]3[C@H](O)C[C@@H]4C[C@H](O)CC[C@]4(C)[C@H]3CC[C@]12C [CDCA, chenodeoxycholic acid, reference compound]; TRUE

Continue with the next compound.
# check: Albumin binding (%) of CC[C@H]1[C@@H](O)[C@@H]2[C@H](CC[C@]3(C)[C@@H]([C@H](C)CCc4nn[nH]n4)[C@@H](O)C[C@@H]23)[C@@]2(C)CC[C@@H](O)C[C@@H]12 [Compound 17] is greater than or equal to 80%
TRUE

====

Target: human glutathione transferase-tagged FXR-LBD (Homo sapiens, UniProt Q96RI1)
Construct: human glutathione transferase-tagged FXR-LBD (Life Technologies, USA)
Sequence (Q96RI1 262-486 limits assumed): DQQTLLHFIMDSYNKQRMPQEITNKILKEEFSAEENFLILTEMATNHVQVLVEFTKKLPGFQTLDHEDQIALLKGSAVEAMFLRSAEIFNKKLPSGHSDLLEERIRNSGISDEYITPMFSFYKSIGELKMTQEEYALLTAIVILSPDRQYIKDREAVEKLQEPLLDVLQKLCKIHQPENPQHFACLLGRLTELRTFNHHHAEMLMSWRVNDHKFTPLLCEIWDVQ
Assay: FXR AlphaScreen coactivator recruitment assay (human)
Conditions: human FXR-LBD, AlphaScreen; read-out: hFXR EC50
Quick reference for log10 EC50 among some compounds
Hey, these are logged values: log10 of EC50, µM being the unit before logging.

CC[C@H]1[C@@H](O)C2C3CC[C@H]([C@H](C)CC(=O)NO)[C@@]3(C)CCC2[C@@]2(C)CC[C@@H](O)C[C@@H]12 (stereo partly drawn) [Compound 20]; 0.94
CC[C@H]1[C@@H](O)[C@@H]2[C@H](C[C@H](O)[C@]3(C)[C@@H]([C@H](C)C[C@H](F)C(=O)O)CC[C@@H]23)[C@@]2(C)CC[C@@H](O)C[C@@H]12 [Compound 8]; 0.75
CC[C@H]1[C@@H](O)[C@@H]2[C@H](C[C@H](O)[C@]3(C)[C@@H]([C@H](C)C[C@@H](F)C(=O)O)CC[C@@H]23)[C@@]2(C)CC[C@@H](O)C[C@@H]12 [Compound 9]; 0.46
CC[C@H]1[C@@H](O)C2C3CC[C@H]([C@H](C)CCc4noc(=O)[nH]4)[C@@]3(C)[C@@H](O)CC2[C@@]2(C)CC[C@@H](O)C[C@@H]12 (stereo partly drawn) [Compound 11]; 0.00
CC[C@H]1[C@@H](O)C2C3CC[C@H]([C@H](C)CC(=O)NCCO)[C@@]3(C)CCC2[C@@]2(C)CC[C@@H](O)C[C@@H]12 (stereo partly drawn) [Compound 19]; 0.48

Field request: log10 EC50 | item: CC[C@@H]1C2C[C@H](O)CC[C@]2(C)C2CC[C@@]3(C)C(CC[C@@H]3[C@H](C)Cc3nc(=O)o[nH]3)C2[C@@H]1O (stereo partly drawn) [Compound 14]
-1.12

Cool, now CC[C@H]1[C@@H](O)[C@@H]2[C@H](C[C@H](O)[C@]3(C)[C@@H]([C@H](C)C[C@H](CF)C(=O)O)CC[C@@H]23)[C@@]2(C)CC[C@@H](O)C[C@@H]12 [Compound 7]
1.11

Lookup CC[C@H]1[C@@H](O)C2C3CC[C@H]([C@H](C)CCc4nn[nH]n4)[C@@]3(C)CCC2[C@@]2(C)CC[C@@H](O)C[C@@H]12 (stereo partly drawn) [Compound 15]
-0.82

====

Molecular target: mouse glutathione transferase-tagged FXR-LBD (Mus musculus)
Construct: mouse glutathione transferase-tagged FXR-LBD (generated in-house)
Sequence (Q60641 264-488 limits assumed): as the sequence (Q96RI1 262-486 limits assumed) above, with H7D, F8Y, N46S, V50I, S95A, S98A, N107K, I125V, I174M, H175Y counted along it
Assay: FXR AlphaScreen coactivator recruitment assay (mouse)
Settings: mouse FXR-LBD, value in parentheses; read-out: (mFXR) EC50
Parameter pEC50: see the listing below.
Scale note: pEC50 = -log10(concentration in M).

A selection of reference data follows.
CC[C@H]1[C@@H](O)C2C3CC[C@H]([C@H](C)CC(=O)NO)[C@@]3(C)CCC2[C@@]2(C)CC[C@@H](O)C[C@@H]12 (stereo partly shown); 4.80
CC[C@H]1[C@@H](O)C2C3CC[C@H]([C@H](C)CCc4nnc(NS(C)(=O)=O)o4)[C@@]3(C)CCC2[C@@]2(C)CC[C@@H](O)C[C@@H]12 (stereo partly shown); 6.48
CC[C@@H]1C2C[C@H](O)CC[C@]2(C)C2CC[C@@]3(C)C(CC[C@@H]3[C@H](C)Cc3nc(=O)o[nH]3)C2[C@@H]1O (stereo partly shown); 6.34
CC[C@H]1[C@@H](O)[C@@H]2[C@H](CC[C@]3(C)[C@@H]([C@H](C)CCc4nc(=O)o[nH]4)[C@@H](O)C[C@@H]23)[C@@]2(C)CC[C@@H](O)C[C@@H]12; 5.64
CC[C@H]1[C@@H](O)C2C3CC[C@H]([C@H](C)CCc4noc(=O)[nH]4)[C@@]3(C)[C@@H](O)CC2[C@@]2(C)CC[C@@H](O)C[C@@H]12 (stereo partly shown); 5.11
CC[C@@H]1C2C[C@H](O)CC[C@]2(C)C2CC[C@@]3(C)C(CC[C@@H]3[C@H](C)Cc3nn[nH]n3)C2[C@@H]1O (stereo partly shown); 5.85
CC[C@H]1[C@@H](O)[C@@H]2[C@H](C[C@H](O)[C@]3(C)[C@@H]([C@H](C)C[C@H](O)C(=O)O)CC[C@@H]23)[C@@]2(C)CC[C@@H](O)C[C@@H]12; 3.84
CC[C@H]1[C@@H](O)[C@@H]2[C@H](CC[C@]3(C)[C@@H]([C@H](C)CCc4nn[nH]n4)[C@@H](O)C[C@@H]23)[C@@]2(C)CC[C@@H](O)C[C@@H]12; 5.64

Query: pEC50; subject: CC[C@H]1[C@@H](O)C2C3CC[C@H]([C@H](C)CC(=O)NCCO)[C@@]3(C)CCC2[C@@]2(C)CC[C@@H](O)C[C@@H]12 (stereo partly shown)
5.00

Same question for CC[C@H]1[C@@H](O)[C@@H]2[C@H](C[C@H](O)[C@]3(C)[C@@H]([C@H](C)C[C@H](F)C(=O)O)CC[C@@H]23)[C@@]2(C)CC[C@@H](O)C[C@@H]12 please.
4.23

====

Target: TGR5 (Homo sapiens, UniProt Q8TDU6)
Sequence (Q8TDU6 whole entry): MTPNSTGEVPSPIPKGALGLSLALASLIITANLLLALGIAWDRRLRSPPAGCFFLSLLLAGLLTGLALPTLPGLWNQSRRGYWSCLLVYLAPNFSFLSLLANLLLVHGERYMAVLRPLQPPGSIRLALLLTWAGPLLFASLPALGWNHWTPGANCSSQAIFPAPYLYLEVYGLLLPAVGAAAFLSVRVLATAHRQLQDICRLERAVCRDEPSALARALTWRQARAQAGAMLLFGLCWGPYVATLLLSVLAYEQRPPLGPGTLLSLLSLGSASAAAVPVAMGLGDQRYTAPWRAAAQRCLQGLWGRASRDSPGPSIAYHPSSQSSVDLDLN
Assay: TGR5 activity: intracellular cAMP levels, NCI-H716 cells (HTR-FRET)
Format: cell-based
Set-up: endogenous in cells; host or cells: NCI-H716
Details: NCI-H716 cells, cAMP
Method: Activation of TGR5 was assessed by measuring the level of cAMP using an HTR-FRET assay. Thus, NCI-H716 cells were cultured on 96-well plates coated with Matrigel (Corning, USA) (0.75 mg/ml) in DMEM supplemented with 10% FCS, 100 units/ml penicillin, and 100 μg/ml streptomycin sulphate. […] The level of intracellular cAMP was determined with Lance kit. Z′ factor was used to validate assays.
experimental-endpoint: log10(EC50) (log10 of the value in µM)
// stored as log10 of EC50 expressed in µM

Before answering, review these 3 worked examples.
CC[C@H]1[C@@H](O)C2C3CC[C@H]([C@H](C)CC(=O)NO)[C@@]3(C)CCC2[C@@]2(C)CC[C@@H](O)C[C@@H]12 (some centres unmarked); -0.15
CC[C@H]1[C@@H](O)C2C3CC[C@H]([C@H](C)CC(F)(F)C(=O)O)[C@@]3(C)CCC2[C@@]2(C)CC[C@@H](O)C[C@@H]12 (some centres unmarked); 0.20
CC[C@H]1[C@@H](O)C2C3CC[C@H]([C@H](C)CCc4nnc(NS(C)(=O)=O)o4)[C@@]3(C)CCC2[C@@]2(C)CC[C@@H](O)C[C@@H]12 (some centres unmarked); 1.10

// returns reported log10(EC50) for input CC[C@H]1[C@@H](O)[C@@H]2[C@H](C[C@H](O)[C@]3(C)[C@@H]([C@H](C)C[C@H](O)C(=O)O)CC[C@@H]23)[C@@]2(C)CC[C@@H](O)C[C@@H]12
1.28

Also CC[C@@H]1C2C[C@H](O)CC[C@]2(C)C2CC[C@@]3(C)C(CC[C@@H]3[C@H](C)Cc3nc(=O)o[nH]3)C2[C@@H]1O (some centres unmarked) , if possible.
0.20

Another compound to look at: CC[C@H]1[C@@H](O)C2C3CC[C@H]([C@H](C)CCc4noc(=O)[nH]4)[C@@]3(C)CCC2[C@@]2(C)CC[C@@H](O)C[C@@H]12 (some centres unmarked)
0.48

Proceed to CC[C@H]1[C@@H](O)C2C3CC[C@H]([C@H](C)C[C@@H](CO)C(=O)O)[C@@]3(C)[C@@H](O)CC2[C@@]2(C)CC[C@@H](O)C[C@@H]12 (some centres unmarked)
0.88

What do we get for CC[C@H]1[C@@H](O)[C@@H]2[C@H](C[C@H](O)[C@]3(C)[C@@H]([C@H](C)C[C@@H](F)C(=O)O)CC[C@@H]23)[C@@]2(C)CC[C@@H](O)C[C@@H]12 ?
1.34
